# measured_target: human ApoC3 (human)
# Sequence (chain, as listed by the source): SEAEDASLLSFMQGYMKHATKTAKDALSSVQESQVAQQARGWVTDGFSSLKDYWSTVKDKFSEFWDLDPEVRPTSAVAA
# test: SPR pH 7.4
value_kind: pKd
Field pKd (float): negative decimal logarithm of the concentration in molar.

{"columns": ["binder", "value_kind", "quantitative_result"],
 "data": [
  ["5E5VH5VH12_VL8 IgG1 (antibody, V domains shown) VH: QLQLVESGGGLVQPGGSLRLSCAASGFTFGTYSMRWVRQVPRKALEWVSSIHTDGGGTAYRDSVKGRFTISRDNAKNTLYLQMNNLKPEDTAIYYCVIHGYSDWGQGTQVTVSS VL: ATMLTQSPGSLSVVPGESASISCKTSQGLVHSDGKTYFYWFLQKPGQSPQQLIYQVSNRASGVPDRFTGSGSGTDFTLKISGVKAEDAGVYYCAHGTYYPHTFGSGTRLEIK", "pKd", 7.65],
  ["5E5VHWT_VL8 IgG1 (antibody, V domains shown) VH: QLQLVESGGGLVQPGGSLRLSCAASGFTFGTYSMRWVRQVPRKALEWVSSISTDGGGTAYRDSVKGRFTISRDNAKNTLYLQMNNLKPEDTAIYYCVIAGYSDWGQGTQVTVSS VL: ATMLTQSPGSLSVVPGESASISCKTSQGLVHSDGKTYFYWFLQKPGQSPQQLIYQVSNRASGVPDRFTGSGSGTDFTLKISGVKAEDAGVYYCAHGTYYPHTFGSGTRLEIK", "pKd", 10.44],
  ["5E5WT (5E5) IgG1 (antibody, V domains shown) VH: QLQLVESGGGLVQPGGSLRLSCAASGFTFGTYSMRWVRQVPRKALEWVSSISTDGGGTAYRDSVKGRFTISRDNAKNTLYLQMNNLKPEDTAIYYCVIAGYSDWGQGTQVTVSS VL: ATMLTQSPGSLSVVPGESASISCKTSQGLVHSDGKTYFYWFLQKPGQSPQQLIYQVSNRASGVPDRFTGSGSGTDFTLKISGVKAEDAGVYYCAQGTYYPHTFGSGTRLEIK", "pKd", 10.29]
]}

Per the records, this binder ( 5E5VH5_VLWT IgG1 (antibody, V domains shown) VH: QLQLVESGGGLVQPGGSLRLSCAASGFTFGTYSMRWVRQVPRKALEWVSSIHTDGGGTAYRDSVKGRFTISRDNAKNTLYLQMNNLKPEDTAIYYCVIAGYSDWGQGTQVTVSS VL: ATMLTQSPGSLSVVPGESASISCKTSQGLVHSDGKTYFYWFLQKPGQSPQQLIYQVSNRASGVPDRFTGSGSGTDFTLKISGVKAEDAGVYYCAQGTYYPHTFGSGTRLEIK ) has pKd equal to 9.68
